Let's look at some molecules and their measured sensitivity under 100 cells.
Test system: HPV-16
Experimental protocol: qPCR sensitivity against HPV-HNSCC tumor samples diluted among 10 ng normal human DNA
Test settings: 32 HPV-HNSCC tumor samples

{"Molecule": "E6: previously designed (historical) HPV-16 E6 primers and Taqman probe, SEQ ID NO: 7-9, positive control (nucleic acid, Taqman probe, labels not given here) DNA 1: TCAGGACCCACAGGAGCG DNA 2: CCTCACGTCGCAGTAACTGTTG DNA 3: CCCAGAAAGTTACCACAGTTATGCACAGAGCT", "U": "%", "sensitivity under 100 cells": 90.6}
{"Molecule": "BR E1-6: HPV-16 E1 region primer/probe set, SEQ ID NO: 43-45 (nucleic acid, chemistry not given here) DNA 1: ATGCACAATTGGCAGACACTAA DNA 2: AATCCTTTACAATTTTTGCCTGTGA DNA 3: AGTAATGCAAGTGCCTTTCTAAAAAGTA", "U": "%", "sensitivity under 100 cells": 87.5}
{"Molecule": "BR E1-5: HPV-16 E1 region primer/probe set, SEQ ID NO: 40-42 (same as SEQ ID NO: 1-3) (nucleic acid, chemistry not given here) DNA 1: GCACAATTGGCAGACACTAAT DNA 2: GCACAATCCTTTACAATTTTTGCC DNA 3: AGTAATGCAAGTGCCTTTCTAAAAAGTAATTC", "U": "%", "sensitivity under 100 cells": 96.9}

The reported measurements were obtained from patent US20200399712A1.
